The origin of these recorded values is patent US9078902B2.

biological target: Ret kinase (Homo sapiens, UniProt P07949); construct: purchased Millipore (KinaseProfiler Service); also Reaction Biology Corp. (Kinase HotSpot); assay: Ret kinase assay (KinaseProfiler / Kinase Hotspot); format: biochemical
Sequence (P07949 29-1114): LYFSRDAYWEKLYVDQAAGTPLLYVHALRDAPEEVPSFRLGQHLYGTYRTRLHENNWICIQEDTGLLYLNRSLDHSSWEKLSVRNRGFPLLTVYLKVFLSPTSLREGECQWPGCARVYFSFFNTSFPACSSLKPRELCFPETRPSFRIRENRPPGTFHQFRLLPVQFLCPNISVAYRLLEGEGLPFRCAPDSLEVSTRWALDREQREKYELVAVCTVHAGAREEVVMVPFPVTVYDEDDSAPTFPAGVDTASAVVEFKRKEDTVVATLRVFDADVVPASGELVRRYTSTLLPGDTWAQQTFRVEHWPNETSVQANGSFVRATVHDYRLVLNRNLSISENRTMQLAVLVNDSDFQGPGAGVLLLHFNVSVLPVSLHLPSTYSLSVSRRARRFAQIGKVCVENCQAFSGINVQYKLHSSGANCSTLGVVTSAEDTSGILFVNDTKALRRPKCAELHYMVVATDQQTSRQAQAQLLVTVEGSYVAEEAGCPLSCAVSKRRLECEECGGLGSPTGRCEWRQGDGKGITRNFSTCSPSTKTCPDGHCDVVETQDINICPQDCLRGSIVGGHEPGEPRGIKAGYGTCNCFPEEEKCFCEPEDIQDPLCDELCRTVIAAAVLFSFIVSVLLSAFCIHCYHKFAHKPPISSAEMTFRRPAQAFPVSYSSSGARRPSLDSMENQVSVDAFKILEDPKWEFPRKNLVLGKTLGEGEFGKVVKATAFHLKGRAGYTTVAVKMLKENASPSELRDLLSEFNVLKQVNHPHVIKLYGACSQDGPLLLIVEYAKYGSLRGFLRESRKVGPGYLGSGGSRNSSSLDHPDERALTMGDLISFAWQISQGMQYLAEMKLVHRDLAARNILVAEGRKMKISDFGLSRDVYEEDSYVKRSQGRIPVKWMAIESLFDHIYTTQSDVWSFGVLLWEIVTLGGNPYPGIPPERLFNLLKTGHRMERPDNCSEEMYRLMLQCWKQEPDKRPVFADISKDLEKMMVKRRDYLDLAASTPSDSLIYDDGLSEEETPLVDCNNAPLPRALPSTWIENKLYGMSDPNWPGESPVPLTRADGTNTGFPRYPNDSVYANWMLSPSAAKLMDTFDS
attributeMeasured: inhibition at 1 µM

Before answering, review these 4 worked examples.
| compound | testResult |
| --- | --- |
| CN1CCN(c2nc(Nc3ncc(-c4ccccc4)s3)nc(Sc3ccccc3)n2)CC1 [Example 14] | < 50% |
| CN1CCN(c2nc(Nc3cc(-c4ccco4)[nH]n3)nc(Oc3ccccc3)n2)CC1 [Example 26] | > 90% |
| CN1CCN(c2nc(Nc3ccccc3)nc(Nc3cc(-c4ccco4)[nH]n3)n2)CC1 [Example 20] | > 90% |
| CN1CCN(c2nc(Nc3ncc(-c4cccs4)s3)nc(Sc3cccc(NC(=O)C4CC4)c3)n2)CC1 [Example 31] | < 50% |

Then this compound:
Recorded inhibition at 1 µM of CN1CCN(c2nc(Nc3ncc(-c4cccs4)s3)nc(Sc3ccccc3)n2)CC1 [Example 21] , please.
< 50%
